Parameter: IC50. Scope: all listed entries.
Molecular target: Neuropilin-1 (Homo sapiens)
Experiment: NRP-1 b1b2 CendR peptide binding inhibitors, dose response, biochemical, FP and AlphaScreen panel (AID 651650)
Details: NRP-1 b1b2 / RPARPAR peptide binding, FP or AlphaScreen; FP, run 2; individual panel run IC50

// known answers, use as guide
O=C(O)c1ccccc1SCC(=O)N1CCCCC1: > 95 µM
COc1ccc(Nc2nc(-c3cccnc3)nc3ccccc23)cn1: > 95 µM

Prompt: I am curious: what IC50 value has been reported for `COc1ccc(CCNC(=O)c2c(O)c3cccc4c3n(c2=O)CC4)cc1OC` ?
Response: > 95 µM

###

Biological target: Neuropilin-1 (Homo sapiens) (UniProt O14786)
Sequence (O14786 whole entry, looked up): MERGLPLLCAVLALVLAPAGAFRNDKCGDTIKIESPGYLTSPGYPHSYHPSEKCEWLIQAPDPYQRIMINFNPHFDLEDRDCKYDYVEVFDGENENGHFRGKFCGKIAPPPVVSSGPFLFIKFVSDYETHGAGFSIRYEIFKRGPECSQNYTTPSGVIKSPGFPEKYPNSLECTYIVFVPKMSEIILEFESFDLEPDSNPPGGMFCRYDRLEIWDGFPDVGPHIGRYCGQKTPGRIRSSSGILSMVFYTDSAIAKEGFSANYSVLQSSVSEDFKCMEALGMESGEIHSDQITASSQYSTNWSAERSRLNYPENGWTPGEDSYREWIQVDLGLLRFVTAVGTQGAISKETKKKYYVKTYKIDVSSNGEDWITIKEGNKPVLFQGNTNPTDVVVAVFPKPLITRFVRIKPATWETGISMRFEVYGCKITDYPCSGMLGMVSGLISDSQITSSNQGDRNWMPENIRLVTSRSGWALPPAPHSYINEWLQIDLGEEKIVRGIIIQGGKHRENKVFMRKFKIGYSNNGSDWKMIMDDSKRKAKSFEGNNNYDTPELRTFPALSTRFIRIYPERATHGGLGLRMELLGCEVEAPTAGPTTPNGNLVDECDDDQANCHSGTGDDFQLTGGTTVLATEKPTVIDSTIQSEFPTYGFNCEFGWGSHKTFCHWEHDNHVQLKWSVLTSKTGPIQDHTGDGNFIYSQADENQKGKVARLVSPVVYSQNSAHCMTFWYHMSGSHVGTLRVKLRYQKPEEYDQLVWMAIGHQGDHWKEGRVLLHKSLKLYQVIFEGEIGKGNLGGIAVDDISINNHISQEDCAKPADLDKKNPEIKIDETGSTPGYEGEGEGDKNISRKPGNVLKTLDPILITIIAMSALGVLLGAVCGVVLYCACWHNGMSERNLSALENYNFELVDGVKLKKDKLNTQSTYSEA
Assay: NRP-1 b1b2 CendR peptide binding inhibitors, dose response, biochemical, FP and AlphaScreen panel (AID 651650)
Settings: NRP-1 b1b2 / RPARPAR peptide binding, FP or AlphaScreen; AlphaScreen, run 1; individual panel run IC50
result_type: IC50

# annotated cases, reported IC50 shown
COc1cccc(C(=O)N2N=C(c3ccccc3)CC2(O)C(F)(F)F)c1 (stereo unspecified): > 100 µM
CC(=O)c1cccc(S(=O)(=O)N2CCC(C(=O)O)(c3ccccc3)CC2)c1: > 100 µM
Cc1ccc(/C=N/Nc2nc3ccccc3[nH]2)s1: > 100 µM
C=CCN(CC=C)C(=O)C1CC(=O)N(c2ccc(Br)cc2)C1 (stereo unspecified): > 100 µM
Cc1ccsc1C(=O)N1CCCC(CO)(Cc2ccccc2F)C1 (stereo unspecified): > 100 µM
COc1cc(C(=O)NCc2ccccc2)cc(Br)c1OC: > 100 µM
CC(=O)Oc1cc2c(c3ccccc13)CCC2=O: > 100 µM
Cc1ccc(COn2c(-c3ccc(Cl)cc3Cl)nc3ncccc32)cc1: > 100 µM
COc1ccc(Cl)cc1NC(=O)C(C)N1CCc2ccccc21 (stereo unspecified): 45.6 µM
Cc1cn([C@H]2C[C@H](O)[C@@H](CCC(=O)NCCc3ccc4ccccc4c3)O2)c(=O)[nH]c1=O: > 100 µM

Prompt: Param readout= IC50; system= Neuropilin-1 (Homo sapiens) (UniProt O14786); entry= Cc1occc1C(=O)N1N=C(C2CC2)CC1(O)C(F)(F)F (stereo unspecified) ; returns value.
Response: > 100 µM

Prompt: Another: `CCCCOC(=O)c1ccc(NS(=O)(=O)c2cc(-c3nnnn3CC)ccc2OC)cc1`
Response: > 100 µM

Prompt: Try this molecule too: O=C(NCc1ccccc1)C(c1cccnc1)N(C(=O)c1ccccn1)c1ccccc1F (stereo unspecified)
Response: > 100 µM

Prompt: Query `NC(=O)C1=C[C@H](c2ccc(Br)cc2)C[C@H](OCc2ccc(CO)cc2)O1` next
Response: > 100 µM

Prompt: Entry `CCOC(=O)CNc1ccc2c(c1)OCO2` please
Response: 27.8 µM

Prompt: Would you kindly repeat that for `O=C(COc1ccc(Br)cc1CO)Nc1ccc(F)cc1` ?
Response: > 100 µM

###

Biological target: Neuropilin-1 (Homo sapiens)
Experiment: NRP-1 b1b2 CendR peptide binding inhibitors, dose response, biochemical, FP and AlphaScreen panel (AID 651650)
Conditions: NRP-1 b1b2 / RPARPAR peptide binding, FP or AlphaScreen; AlphaScreen, run 1; individual panel run IC50
// IC50 lookup, one value per entry

Before answering, review these 3 worked examples.
Cc1ccc(CN(CC(=O)NC2CCCCC2)C(=O)c2csnn2)cc1: > 100 µM
N#CC(C#N)=Cc1cc2ccccc2nc1N1CCCCC1: > 100 µM
Cc1ccc(NC(=O)COc2ncnc3c(Cl)cc(Cl)cc23)cc1[N+](=O)[O-]: > 100 µM

Prompt: I have this molecule here, CC1(C)S[C@@H]2[C@H](NC(=O)COc3ccccc3)C(=O)N2C1C(=O)OCc1ccccc1 (some centres undefined) , and I need its recorded IC50.
Response: > 100 µM

Prompt: // query: CC(C)C1=C2CCCCC2NC(=O)N1 (centres undefined)
Response: > 100 µM
